SYSTEM_NAME: mouse Nurr1 full-length (Mus musculus)
Construct: pcDNA3.1 Myc/His mouse Nurr1 full-length construct; expressed in transfected cells; host or cells: SK-N-BE2C
ASSAY_NOTES: Luciferase reporter gene assay for Nurr1 transcriptional activity in SK-N-BE2C cells
Format: cell-based
COND: relative activity over control (luminescence value; 1.0)

MOLECULE	SYSTEM_NAME	Fold activity (1 uM)
CCCC1([C@H](O)C/C=C/[C@H]2[C@H](O)CC(=O)[C@@H]2CCCCCCC(=O)OC)CCC1 [Compound 35, (R)-Butaprost]	mouse Nurr1 full-length (Mus musculus)	B (1.1~2.0 (moderate))
CCCCC[C@](C)(O)/C=C/[C@H]1C(=O)C[C@H](O)[C@@H]1C/C=C\CCCC(=O)O [Compound 57, 15(S)-15-methyl Prostaglandin D2]	mouse Nurr1 full-length (Mus musculus)	B (1.1~2.0 (moderate))
CCCCC(C)(O)C/C=C/[C@H]1[C@H](O)CC(=O)[C@@H]1CCCCCCC(=O)O (mixture of isomers)	mouse Nurr1 full-length (Mus musculus)	B (1.1~2.0 (moderate))

----------
SYSTEM_NAME: mouse Nurr1 full-length (Mus musculus)
Construct: pcDNA3.1 Myc/His mouse Nurr1 full-length construct; expressed in transfected cells; host or cells: SK-N-BE2C
ASSAY_NOTES: Luciferase reporter gene assay for Nurr1 transcriptional activity in SK-N-BE2C cells
Type: cell-based
COND: relative activity over control (luminescence value; 1.0)

MOLECULE	SYSTEM_NAME	Fold activity (1 uM)
CCCCC[C@@H](O)/C=C/[C@H]1[C@H](C/C=C\CCCC(=O)O)C(=O)C[C@@H]1O [Compound 47, ent-Prostaglandin E2]	mouse Nurr1 full-length (Mus musculus)	B (1.1~2.0 (moderate))
CCCCCC(=O)CCC1C(O)CC(=O)C1CCCCCCC(=O)O (stereo not drawn) [Compound 74, 13,14-dihydro-15-keto Prostaglandin E1]	mouse Nurr1 full-length (Mus musculus)	B (1.1~2.0 (moderate))
C=C1C[C@H](O)[C@H](C/C=C\CCCC(=O)O)[C@H]1/C=C/[C@@H](O)CCCCC [Compound 25, 11-deoxy-11-methylene Prostaglandin D2]	mouse Nurr1 full-length (Mus musculus)	B (1.1~2.0 (moderate))

----------
SYSTEM_NAME: mouse Nurr1 full-length (Mus musculus)
Construct: pcDNA3.1 Myc/His mouse Nurr1 full-length construct; expressed in transfected cells; host or cells: SK-N-BE2C
ASSAY_NOTES: Luciferase reporter gene assay for Nurr1 transcriptional activity in SK-N-BE2C cells
Type: cell-based
COND: relative activity over control (luminescence value; 1.0)
ENDPOINT_LABEL: Fold activity (1 uM)

COMPOUND	SYSTEM_NAME	ENDPOINT_LABEL	RESULT
O=C(O)CCCCCC[C@H]1C(=O)C[C@@H](O)[C@@H]1/C=C/[C@@H](O)Cc1ccccc1 [Compound 59, 16-phenyl tetranor Prostaglandin E1]	mouse Nurr1 full-length (Mus musculus)	Fold activity (1 uM)	B (1.1~2.0 (moderate))
CCCCC[C@@](C)(O)/C=C/[C@H]1[C@H](O)CC(=O)[C@@H]1C/C=C\CCCC(=O)O [Compound 53, 15(R)-15-methyl Prostaglandin E2]	mouse Nurr1 full-length (Mus musculus)	Fold activity (1 uM)	B (1.1~2.0 (moderate))
CCCCCC(=O)/C=C/[C@H]1[C@H](O)CC(=O)[C@@H]1CCCCCCC(=O)O [Compound 19, 15-keto Prostaglandin E1]	mouse Nurr1 full-length (Mus musculus)	Fold activity (1 uM)	B (1.1~2.0 (moderate))

----------
SYSTEM_NAME: mouse Nurr1 full-length (Mus musculus)
Construct: pcDNA3.1 Myc/His mouse Nurr1 full-length construct; expressed in transfected cells; host or cells: SK-N-BE2C
ASSAY_NOTES: Luciferase reporter gene assay for Nurr1 transcriptional activity in SK-N-BE2C cells
Format: cell-based
COND: relative activity over control (luminescence value; 1.0)
Procedure: To investigate whether the PG analogs of the present invention activate Nurr1 function, the inventors of the present invention employed an reporter gene assay and examined the transcriptional activation as described in Kim, C.-H. et al., Proceedings of the National Academy of Sciences 112, 8756-8761, doi:10.1073/pnas.1509742112 (2015). The gene assay was performed by Luciferase assay as described below: [Protocol for Luciferase Assay to Determine Nurr1 Transcriptional Activity] • 1. […]
ENDPOINT_LABEL: Fold activity (1 uM)

COMPOUND	ENDPOINT_LABEL	RESULT
O=C(O)CCC/C=C\C[C@H]1C(=O)C[C@@H](O)[C@@H]1/C=C/[C@@H](O)CCc1ccccc1 [Compound 38, 17-phenyl trinor Prostaglandin E2]	Fold activity (1 uM)	B (1.1~2.0 (moderate))
O=C(O)CCC/C=C\C[C@H]1[C@@H](O)CC(=O)[C@@H]1/C=C/[C@@H](O)COc1cccc(C(F)(F)F)c1	Fold activity (1 uM)	B (1.1~2.0 (moderate))

----------
SYSTEM_NAME: mouse Nurr1 full-length (Mus musculus, UniProt Q06219)
Construct: pcDNA3.1 Myc/His mouse Nurr1 full-length construct; expressed in transfected cells; host or cells: SK-N-BE2C
Sequence (Q06219 whole entry): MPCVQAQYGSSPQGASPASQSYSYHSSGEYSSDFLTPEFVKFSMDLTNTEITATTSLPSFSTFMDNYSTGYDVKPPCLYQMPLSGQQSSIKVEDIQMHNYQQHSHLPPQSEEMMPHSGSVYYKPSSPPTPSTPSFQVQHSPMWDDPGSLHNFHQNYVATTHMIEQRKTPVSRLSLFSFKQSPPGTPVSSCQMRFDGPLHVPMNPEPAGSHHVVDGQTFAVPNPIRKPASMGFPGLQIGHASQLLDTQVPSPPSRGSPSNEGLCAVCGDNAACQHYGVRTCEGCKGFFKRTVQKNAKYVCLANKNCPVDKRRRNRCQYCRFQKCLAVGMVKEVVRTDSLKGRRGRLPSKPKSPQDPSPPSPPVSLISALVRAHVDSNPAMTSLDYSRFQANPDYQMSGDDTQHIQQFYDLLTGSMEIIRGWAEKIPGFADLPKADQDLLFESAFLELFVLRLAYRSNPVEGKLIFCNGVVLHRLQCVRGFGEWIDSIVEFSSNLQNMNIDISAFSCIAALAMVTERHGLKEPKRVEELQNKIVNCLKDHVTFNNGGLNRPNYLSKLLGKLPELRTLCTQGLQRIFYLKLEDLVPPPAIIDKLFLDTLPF
ASSAY_NOTES: Luciferase reporter gene assay for Nurr1 transcriptional activity in SK-N-BE2C cells
Assay type: cell-based
COND: relative activity over control (luminescence value; 1.0)
ENDPOINT_LABEL: Fold activity (1 uM)

MOLECULE	SYSTEM_NAME	RESULT
CCCCCC(O)/C=C/C1C(=O)CC(O)C1C/C=C\CCCC(=O)OCC(O)CO (stereo not shown) [Compound 17, Prostaglandin D2-1-glyceryl ester]	mouse Nurr1 full-length (Mus musculus, UniProt Q06219)	B (1.1~2.0 (moderate))
CCCCC[C@@H](O)/C=C/[C@H]1[C@H](O)CC(=O)[C@@H]1C/C=C\CCCC(=O)O [Compound 37, 15(R)-Prostaglandin E2]	mouse Nurr1 full-length (Mus musculus, UniProt Q06219)	B (1.1~2.0 (moderate))
